Biological target: cynomolgus monkey IL-2Rγ/CD132 subunit (cynomolgus monkey)
Sequence (chain, as listed by the source): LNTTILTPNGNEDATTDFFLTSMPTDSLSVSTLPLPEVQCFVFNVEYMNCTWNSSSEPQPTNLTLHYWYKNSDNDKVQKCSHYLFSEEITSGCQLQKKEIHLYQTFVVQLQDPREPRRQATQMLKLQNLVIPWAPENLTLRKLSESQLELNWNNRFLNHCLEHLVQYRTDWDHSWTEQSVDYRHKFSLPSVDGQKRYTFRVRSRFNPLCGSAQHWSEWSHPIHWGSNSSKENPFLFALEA
Experiment: ELISA, monovalent; EC50 cyno vs human subunit
Property: Fold change; scope: individual binders
Property Name: Fold change

INSERT INTO assay_data (binder, value_reported) VALUES
  ('34-MP04A12 VHH-hFc, monospecific monovalent (Fc fusion, part only; not given: Both Fc arms and linker, not shown: another chain or arm of the molecule; a dimerising Fc or GST; large carriers; small tags and cut ends) VHH: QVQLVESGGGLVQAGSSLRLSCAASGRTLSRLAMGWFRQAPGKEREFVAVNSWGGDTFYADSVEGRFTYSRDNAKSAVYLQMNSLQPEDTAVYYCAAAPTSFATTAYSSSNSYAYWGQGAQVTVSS', '1.2 fold'),
  ('38-MP07A11 VHH-hFc, monospecific monovalent (Fc fusion, part only; not given: Both Fc arms and linker, not shown: another chain or arm of the molecule; a dimerising Fc or GST; small tags and cut ends) VHH: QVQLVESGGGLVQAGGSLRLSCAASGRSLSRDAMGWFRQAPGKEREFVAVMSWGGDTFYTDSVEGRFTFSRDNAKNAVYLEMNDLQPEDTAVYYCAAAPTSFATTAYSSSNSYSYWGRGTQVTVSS', '1.5 fold');
